# Test system: Simliki forest virus
# PROTOCOL_DESCRIPTION: Antiviral activity in Vero cell cultures
# Type: cell-based
# PARTICULARS: Vero cells; values given as fractions
So I've got a bunch of molecules here, and I need their Minimum inhibitory concentration, Simliki forest virus values.

So what's the measured Minimum inhibitory concentration, Simliki forest virus for this one? "COc1ccc(/C=C/C(=O)c2ccccc2)c(OC)c1" <1/100

Bench note: what Minimum inhibitory concentration, Simliki forest virus did "C=CCOc1ccc(C(=O)/C=C/c2ccc(OC)c(OC)c2)cc1" show? 1/2000

Any idea what its Minimum inhibitory concentration, Simliki forest virus is? The molecule is "C=CCOc1ccc(C(=O)/C=C/c2c(OC)cc(OC)cc2OC)cc1" 1/600

Look at this molecule and give its reported Minimum inhibitory concentration, Simliki forest virus. "COc1ccc(/C=C/C(=O)c2ccccc2O)c(OC)c1" <1/100

Which measured Minimum inhibitory concentration, Simliki forest virus value corresponds to "COc1cccc(OC)c1/C=C/C(=O)c1ccc(O)cc1" ? 1/600

----------
PARAMETER_MEASURED: melting point

Look up melting point for this compound: COc1ccc(C(=O)/C=C/c2ccccc2F)c(OC)c1OC [2-F-2′,3′,4′-OCH3, 2-fluoro-2′,3′,4′-trimethoxychalcone] 75 to 75.8 °C

Please give the measured melting point for this compound: COc1ccc(C(=O)/C=C/c2cccc([N+](=O)[O-])c2)c(OC)c1OC [3-NO2-2′,3′,4′-OCH3, 3-nitro-2′,3′,4′-trimethoxychalcone] 130.1 to 130.7 °C

Item under review: COc1ccc(C(=O)/C=C/c2ccc(C#N)cc2)c(OC)c1OC [4-CN-2′,3′,4′-OCH3, 4-cyano-2′,3′,4′-trimethoxychalcone] . Reported melting point? 131.7 to 133 °C

I would be grateful if you could share the reported melting point for COc1ccc(C(=O)/C=C/c2ccccc2[N+](=O)[O-])c(OC)c1OC [PH98, 2-nitro-2′,3′,4′-trimethoxychalcone] . 107.1 to 108 °C

What does the record list as melting point for COc1cc(/C=C/C(=O)c2ccc(OC)c(OC)c2OC)cc(OC)c1 [2′,3′,4′,3,5-OCH3, 3,5,2′,3′,4′-pentamethoxychalcone] ? 111.6 to 112.5 °C

For the compound shown here, O=C(/C=C/c1ccc(Oc2ccccc2)cc1)c1ccc(F)cc1 [4′-F-4-OC6H5, 4-phenoxy-4′-fluorochalcone] , give the reported melting point. 115.7 to 116 °C

----------
Exercise: for every item that follows, state its recorded TNF-α production (OD values).
# System: TNF-α
# PROTOCOL_DESCRIPTION: TNF-α production by human peripheral blood mononuclear cells, culture supernatant (ELISA)
# Type: cell-based
# PARTICULARS: Experiment 1; LPS; 12.5 μg/ml; Control 1.17
Number in OD, nothing else.

Item: "COc1cc(/C=C/C(=O)c2ccc(C3CCCCC3)cc2)cc(OC)c1" Test system: TNF-α Read-out: TNF-α production (OD values) Value: ? 1.15

Entry "COc1cc(/C=C/C(=O)c2cccc(F)c2)cc(OC)c1" , system TNF-α: what TNF-α production (OD values) was measured? 0.00

Query the reported TNF-α production (OD values) for TNF-α; item: "COc1cc(/C=C/C(=O)c2ccc(N(C)C)cc2)cc(OC)c1" 1.23

Fill in the recorded TNF-α production (OD values) for this compound, with TNF-α as test system: "COc1cc(/C=C/C(=O)c2ccc([N+](=O)[O-])cc2)cc(OC)c1" 1.07

Write down the reported TNF-α production (OD values) of "COc1cc(/C=C/C(=O)c2ccccc2F)cc(OC)c1" , test system: TNF-α. 0.01

Under TNF-α: TNF-α production (OD values) value of "CCCCOc1ccccc1C(=O)/C=C/c1ccc(OC)cc1OC" ? 0.26

----------
Assignment: determine reported melting point for the given compounds.

Please look up its melting point: CN(C)c1ccc(/C=C/C(=O)c2ccc([N+](=O)[O-])cc2)cc1 [4′-NO2-4-N(CH3)2, 4-dimethylamino-4′-nitrochalcone] 214 to 214.7 °C

I have this compound here, COc1cc(/C=C/C(=O)c2cccc(O)c2)cc(OC)c1 [3′-OH-3,5-OCH3, 3,5-dimethoxy-3′-hydroxychalcone] , and I need its recorded melting point. 126.2 to 126.8 °C

melting point for CCCCOc1ccccc1/C=C/C(=O)c1ccc(OC)c(OC)c1OC [2-OC4H9-2′,3′,4′-OCH3, 2-butoxy-2′,3′,4′-trimethoxychalcone] ? 129.4 to 130.2 °C

----------
# Tested on: human embryonic lung (HEL) cells
# PROTOCOL_DESCRIPTION: Cytotoxicity in human embryonic lung (HEL) cells
# Assay type: cell-based
# PARTICULARS: HEL cell growth reduced by 50%; values given as fractions
Please go through the items and note down their Cytotoxicity CC50.

Can you share its Cytotoxicity CC50? I mean this compound: "C=CC(C)(C)c1cc(/C=C/C(=O)c2ccc(O)cc2)c(OC)cc1O" 1/600

What value of Cytotoxicity CC50 has been reported for the following compound? "C=CCOc1ccc(C(=O)/C=C/c2cc(OC)c(OC)cc2OC)cc1" <1/30

Reported Cytotoxicity CC50 for "COc1ccc(/C=C/C(=O)c2ccc(O)cc2)cc1OC" : what is it? <1/30

Requested read-out: Cytotoxicity CC50. Entry: C=CCOc1ccc(C(=O)/C=C/c2cc(OC)cc(OC)c2)cc1 [SBC-35ma, 3,5-dimethoxy-4′-allyloxychalcone] <1/60

Which Cytotoxicity CC50 is listed for "COc1cccc(OC)c1/C=C/C(=O)c1ccc(O)cc1" ? 1/80

Reported Cytotoxicity CC50 for "C=CCOc1ccc(C(=O)/C=C/c2ccc(OC)c(OC)c2)cc1" : what is it? <1/30

Param item = "C=CCOc1ccc(C(=O)/C=C/c2cc(OC)c(OC)c(OC)c2)cc1" ; retrieve measured Cytotoxicity CC50. <1/60

Item "C=CCOc1ccc(C(=O)/C=C/c2c(OC)cc(OC)cc2OC)cc1" has what recorded Cytotoxicity CC50? <1/30

Which Cytotoxicity CC50 reading was recorded for the compound "COc1ccc(/C=C/C(=O)c2ccccc2O)c(OC)c1" ? <1/60

Which measured Cytotoxicity CC50 value corresponds to "COc1ccc(/C=C/C(=O)c2ccccc2)c(OC)c1" ? <1/30

Recorded Cytotoxicity CC50 for "C=CCOc1ccc(C(=O)/C=C/c2cccc(OC)c2OC)cc1" , please? <1/30

Value lookup for Cytotoxicity CC50; key = "C=CCOc1ccc(C(=O)/C=C/c2cc(OC)ccc2OC)cc1" <1/30

----------
Please go through the items and note down their Antiviral activity IC50, AD-169 strain, Assay 1.
# Test system: cytomegalovirus AD-169 strain
# PROTOCOL_DESCRIPTION: Activity against cytomegalovirus in HEL cells (plaque formation)
# Type: cell-based
# PARTICULARS: virus plaque formation reduced by 50%, 100 PFU, values given as fractions

Find the measured Antiviral activity IC50, AD-169 strain, Assay 1: item "C=CCOc1ccc(C(=O)/C=C/c2cccc(OC)c2OC)cc1" , target or system cytomegalovirus AD-169 strain. <1/30

Antiviral activity IC50, AD-169 strain, Assay 1 of "C=CCOc1ccc(C(=O)/C=C/c2cc(OC)c(OC)cc2OC)cc1" on cytomegalovirus AD-169 strain? 1/60

# value lookup — system cytomegalovirus AD-169 strain, readout Antiviral activity IC50, AD-169 strain, Assay 1, item "C=CCOc1ccc(C(=O)/C=C/c2cc(OC)c(OC)c(OC)c2)cc1" 1/150

----------
# Tested on: Reovirus-1
# PROTOCOL_DESCRIPTION: Antiviral activity in Vero cell cultures
# Type: cell-based
# PARTICULARS: Vero cells; values given as fractions
PARAMETER_MEASURED: Minimum inhibitory concentration, Reovirus-1

Which measured Minimum inhibitory concentration, Reovirus-1 belongs to C=CCOc1ccc(C(=O)/C=C/c2c(OC)cc(OC)cc2OC)cc1 [2,4,6m4′ac] , tested on Reovirus-1? <1/100

What value of Minimum inhibitory concentration, Reovirus-1 on Reovirus-1 does COc1ccc(/C=C/C(=O)c2ccccc2O)c(OC)c1 [2,4m2′hc] have? <1/100

Write down the reported Minimum inhibitory concentration, Reovirus-1 of C=CC(C)(C)c1cc(/C=C/C(=O)c2ccc(O)cc2)c(OC)cc1O [Licochalcone A] , test system: Reovirus-1. <1/100

----------
# Tested on: Sindbis virus
# PROTOCOL_DESCRIPTION: Antiviral activity in Vero cell cultures
# Assay type: cell-based
# PARTICULARS: Vero cells; values given as fractions
Record form. Attribute: Minimum inhibitory concentration, Sindbis virus. Fill in for each entry.

I have this compound here, "COc1cccc(OC)c1/C=C/C(=O)c1ccc(O)cc1" , and I need its recorded Minimum inhibitory concentration, Sindbis virus. 1/2000

Consider the compound shown here: "COc1ccc(/C=C/C(=O)c2ccccc2)c(OC)c1" What is its recorded Minimum inhibitory concentration, Sindbis virus? <1/100

Which Minimum inhibitory concentration, Sindbis virus value is on record for "COc1ccc(/C=C/C(=O)c2ccccc2O)c(OC)c1" ? <1/100

Numbers sourced from patent US20030065039A1.
